These data points were gathered from patent US20210130436A1.

Each record here notes measured Fold change to WT CD80.
target: T1, human CTLA-4 (human, UniProt P16410 36-223); test: flow cytometry, CHO cells stably expressing huCTLA4, 33.3 nM, PE anti-human Fc
T1 construct: whole, on cells; also called huCTLA4
T1 sequence (P16410 36-223): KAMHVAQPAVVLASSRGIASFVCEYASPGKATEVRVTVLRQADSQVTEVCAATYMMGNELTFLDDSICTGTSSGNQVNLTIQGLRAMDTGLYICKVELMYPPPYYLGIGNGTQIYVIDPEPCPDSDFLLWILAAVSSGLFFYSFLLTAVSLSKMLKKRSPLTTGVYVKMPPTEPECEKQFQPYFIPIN
Kindly provide the numeric value in fold only, without the unit symbol.

Here is how some binders turned out for Fold change to WT CD80.
>>> measurement("E24D/Q27R/E35D/T41S/M47V/L85Q CD80 IgV-Fc (Fc fusion, not shown: a dimerising Fc or GST) VIHVTKEVKEVATLSCGHNVSVEDLARTRIYWQKDKKMVLSMMSGDVNIWPEYKNRTIFDITNNLSIVILALRPSDEGTYECVVQKYEKDAFKREHLAEVTLSVKAD")
13.5
>>> measurement("Q33R/M47V/T62N/A71G CD80 IgV-Fc (Fc fusion, not shown: a dimerising Fc or GST) VIHVTKEVKEVATLSCGHNVSVEELAQTRIYWRKEKKMVLTMMSGDVNIWPEYKNRTIFDINNNLSIVILGLRPSDEGTYECVVLKYEKDAFKREHLAEVTLSVKAD")
0.3

// query Fold change to WT CD80 value for entry E35D/D46E/M47L/V68M/L85Q/F92L CD80 IgV-Fc (Fc fusion, not shown: a dimerising Fc or GST) VIHVTKEVKEVATLSCGHNVSVEELAQTRIYWQKDKKMVLTMMSGELNIWPEYKNRTIFDITNNLSIMILALRPSDEGTYECVVQKYEKDALKREHLAEVTLSVKAD
0.2
